For each of the compounds below, state its growth.
System: CCRF-CEM leukemia
protocol_text: NCI-60 one-dose screen, 48 h (100 = growth as untreated, 0 = no growth, -100 = all killed)
study_conditions: 10 µM unless noted
The panel holds about 83,000 compounds, 20% with a hit somewhere; the sample as a whole holds those more often. Activity calls are given as the source filed them. How the source made its calls: active means growth percent below 10; inactive means the rest.

Solved cases below.
{"compound": "CCNC(=O)CCCCC(=O)c1c(C)[nH]c(/C=C2\\N=C(c3ccc[nH]3)C=C2OC)c1C", "growth": "42.2% (inactive)"}
{"compound": "O=P([O-])(O)OP(=O)([O-])O.[NH-][C@H]1CCCC[C@@H]1[NH-].[OH-].[OH-].[Pt+4]", "growth": "98.4% (inactive)"}

--- query ---
Form entry - test system: CCRF-CEM leukemia; read-out: growth; compound: CCCC1OC(c2ccc(C(C)C)cc2)OCC1CC (stereo not drawn)
95.9% (inactive)

The origin of these recorded values is PubChem BioAssay (NCI).
